The origin of these recorded values is patent US12258327B2.

TARGET_ENTITY: EGFR L858R/C797S (Homo sapiens, UniProt P00533, C797S/L858R)
Sequence (P00533 25-1210 C797S/L858R): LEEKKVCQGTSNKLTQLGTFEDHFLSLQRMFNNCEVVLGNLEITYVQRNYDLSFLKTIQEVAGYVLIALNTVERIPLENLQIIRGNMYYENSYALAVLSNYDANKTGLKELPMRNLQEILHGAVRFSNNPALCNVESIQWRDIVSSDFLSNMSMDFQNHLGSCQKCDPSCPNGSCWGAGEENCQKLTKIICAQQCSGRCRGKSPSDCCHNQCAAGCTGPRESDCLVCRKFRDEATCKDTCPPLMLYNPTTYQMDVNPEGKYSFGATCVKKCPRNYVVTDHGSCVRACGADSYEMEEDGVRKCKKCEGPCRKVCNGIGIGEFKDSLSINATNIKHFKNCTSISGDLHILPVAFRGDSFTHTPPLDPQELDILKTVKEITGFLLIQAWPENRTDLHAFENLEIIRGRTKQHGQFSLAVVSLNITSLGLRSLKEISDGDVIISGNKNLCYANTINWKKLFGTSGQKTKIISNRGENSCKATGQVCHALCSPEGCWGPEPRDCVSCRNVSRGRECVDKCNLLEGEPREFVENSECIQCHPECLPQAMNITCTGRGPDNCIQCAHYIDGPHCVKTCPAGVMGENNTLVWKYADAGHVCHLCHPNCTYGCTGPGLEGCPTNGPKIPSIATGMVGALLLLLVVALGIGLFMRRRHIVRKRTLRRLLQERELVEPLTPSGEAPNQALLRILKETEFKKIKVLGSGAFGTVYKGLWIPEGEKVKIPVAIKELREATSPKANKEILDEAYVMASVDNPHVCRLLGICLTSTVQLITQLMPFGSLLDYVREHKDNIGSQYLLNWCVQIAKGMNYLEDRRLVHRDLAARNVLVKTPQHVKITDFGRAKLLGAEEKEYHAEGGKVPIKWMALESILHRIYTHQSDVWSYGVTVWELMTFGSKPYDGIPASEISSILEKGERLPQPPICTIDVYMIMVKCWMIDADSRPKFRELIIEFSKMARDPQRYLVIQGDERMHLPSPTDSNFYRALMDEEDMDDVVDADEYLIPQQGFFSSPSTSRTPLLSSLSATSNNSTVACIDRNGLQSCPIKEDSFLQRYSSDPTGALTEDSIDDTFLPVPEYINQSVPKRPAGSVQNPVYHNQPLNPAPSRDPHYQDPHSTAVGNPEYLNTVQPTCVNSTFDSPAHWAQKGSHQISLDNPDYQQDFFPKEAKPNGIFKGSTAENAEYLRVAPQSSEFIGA
TEST_SUMMARY: Biochemical EGFR kinase assay (Lance Ultra TR-FRET), double mutant L858R/C797S
CONDITION_PARAMETERS: IC50 L858R/C797S (nM) 100 μM ATP, 100 μM ATP
# 1 (yes) = IC50 below 7 nM (exclusive); 0 (no) = IC50 at/above 7 nM

Take the molecule C[C@]1(O)CC[C@@H](Nc2cc(Nc3ccnc(-c4cnn(S(=O)(=O)C5CC5)c4)n3)ncc2-c2ccn(CC(F)(F)F)n2)CC1 [Example 289] and say whether its IC50 is less than 7 nM.
0 (no)

Take the molecule CC(C)(O)c1nc(-c2cnc(Nc3ccnc(-c4cnn(S(=O)(=O)C5CC5)c4)n3)cc2N[C@H]2CCC[C@H](O)C2)cs1 [Example 91] and say whether its IC50 is less than 7 nM.
0 (no)

Take the molecule Cn1ccc(-c2cnc(Nc3ccnc(-c4cnn(S(=O)(=O)C5CC5)c4)n3)cc2NC2CCCC(NCCF)C2)n1 (stereo not shown) [Example 225] and say whether its IC50 is less than 7 nM.
0 (no)

Take the molecule CC(C)(O)[C@H]1CC[C@@H](Nc2cc(Nc3ccnc(-c4cnn(S(=O)(=O)C5CC5)c4)n3)ncc2-c2ccn(C3COC3)n2)CC1 [Example 283] and say whether its IC50 is less than 7 nM.
1 (yes)

Take the molecule O=S(=O)(C1CC1)n1cc(-c2nccc(Nc3cc(N[C@H]4CC[C@@H](O)CC4)c(-c4ccco4)cn3)n2)cn1 [Example 83] and say whether its IC50 is less than 7 nM.
0 (no)

Take the molecule O=S(=O)(C1CC1)n1cc(-c2nccc(Nc3cc(N[C@H]4CC[C@@H](O)CC4)c(-c4cnn(C5CC5)c4)cn3)n2)cn1 [Example 78] and say whether its IC50 is less than 7 nM.
0 (no)

Take the molecule CC(C)n1ccc(-c2cnc(Nc3ccnc(-c4cnn(S(=O)(=O)C5CC5)c4)n3)cc2N[C@H]2CC[C@@](C)(O)CC2)n1 [Example 84] and say whether its IC50 is less than 7 nM.
1 (yes)

Take the molecule CC1(O)CCC(Nc2cc(Nc3ccnc(-c4cnn(C5CCCCO5)c4)n3)ncc2-c2ccn(C(F)F)n2)CC1 (stereo not shown) [Example 314] and say whether its IC50 is less than 7 nM.
0 (no)

Take the molecule O=S(=O)(C1CC1)n1cc(-c2nccc(Nc3cc(N[C@H]4CC[C@@H](CN5CCC5)CC4)c(-c4ccn(CC(F)F)n4)cn3)n2)cn1 [Example 247] and say whether its IC50 is less than 7 nM.
1 (yes)

Take the molecule CN(C)C[C@H]1C[C@@H](CNc2cc(Nc3ccnc(-c4cnn(S(=O)(=O)C5CC5)c4)n3)ncc2-c2ccn(C(F)F)n2)C1 [Example 203] and say whether its IC50 is less than 7 nM.
0 (no)

Take the molecule Cn1ccc(-c2cnc(Nc3ccnc(-c4cnn(S(=O)(=O)C5CC5)c4)n3)cc2NCC2CCC(NCCF)CC2)n1 (stereo not shown) [Example 131] and say whether its IC50 is less than 7 nM.
1 (yes)

Take the molecule O=S(=O)(C1CC1)n1cc(-c2nccc(Nc3cc(N[C@H]4CC[C@@H](NCC(F)F)CC4)c(-c4ccn(C(F)F)n4)cn3)n2)cn1 [Example 23] and say whether its IC50 is less than 7 nM.
0 (no)

Take the molecule O=S(=O)(C1CC1)n1cc(-c2nccc(Nc3cc(N[C@H]4CC[C@](O)(CO)CC4)c(-c4csc(N5CCOCC5)n4)cn3)n2)cn1 [Example 125] and say whether its IC50 is less than 7 nM.
0 (no)

Take the molecule O=S(=O)(C1CC1)n1cc(-c2nccc(Nc3cc(OC4CCC(O)C4)c(-c4cnn(C(F)F)c4)cn3)n2)cn1 (stereo not shown) [Example 72] and say whether its IC50 is less than 7 nM.
0 (no)

Take the molecule CN(C)C[C@H]1CC[C@@H](Nc2cc(Nc3ccnc(-c4cnn(S(=O)(=O)C5CC5)c4)n3)ncc2-c2ccn(CC(F)(F)F)n2)CC1 [Example 266] and say whether its IC50 is less than 7 nM.
1 (yes)

Take the molecule O=S(=O)(C1CC1)n1cc(-c2nccc(Nc3cc(NC[C@H]4C[C@@H](O)C4)c(-c4ccn(C(F)F)n4)cn3)n2)cn1 [Example 35] and say whether its IC50 is less than 7 nM.
0 (no)

Take the molecule O=S(=O)(C1CC1)n1cc(-c2nccc(Nc3cc(N[C@@H]4CC[C@@H](O)C4)c(-c4ccn(C(F)F)n4)cn3)n2)cn1 [Example 12] and say whether its IC50 is less than 7 nM.
0 (no)

Take the molecule O=S(=O)(C1CC1)n1cc(-c2nccc(Nc3cc(NCC4CC5(CNC5)C4)c(-c4ccn(C(F)F)n4)cn3)n2)cn1 [Example 26] and say whether its IC50 is less than 7 nM.
0 (no)

Take the molecule CN(C)S(=O)(=O)n1cc(-c2nccc(Nc3cc(N[C@H]4CC[C@@](C)(O)CC4)c(-c4ccn(C(F)F)n4)cn3)n2)cn1 [Example 317] and say whether its IC50 is less than 7 nM.
0 (no)

Take the molecule O=S(=O)(C1CC1)n1cc(-c2nccc(Nc3cc(N[C@H]4CC[C@@H](CN5CCC5)CC4)c(-c4ccn(CC(F)(F)F)n4)cn3)n2)cn1 [Example 272] and say whether its IC50 is less than 7 nM.
1 (yes)

Take the molecule O=S(=O)(C1CC1)n1cc(-c2nccc(Nc3cc(N[C@H]4CCC[C@H](CO)C4)c(-c4ccn(CC(F)(F)F)n4)cn3)n2)cn1 [Example 271] and say whether its IC50 is less than 7 nM.
0 (no)

Take the molecule CC1(CNc2cc(Nc3ccnc(-c4cnn(S(=O)(=O)C5CC5)c4)n3)ncc2-c2ccn(C(F)F)n2)CCC(O)CC1 (stereo not shown) [Example 128] and say whether its IC50 is less than 7 nM.
0 (no)

Take the molecule COc1ncc(-c2nccc(Nc3cc(N[C@H]4CC[C@@](C)(O)CC4)c(-c4ccn(C(F)F)n4)cn3)n2)cn1 [Example 312] and say whether its IC50 is less than 7 nM.
0 (no)

----------
TARGET_ENTITY: EGFR del19/T790M/C797S (Homo sapiens, UniProt P00533, C797S/DEL746-750/T790M)
Sequence (P00533 with tags, fused parts or gaps DEL746-750/T790M/C797S): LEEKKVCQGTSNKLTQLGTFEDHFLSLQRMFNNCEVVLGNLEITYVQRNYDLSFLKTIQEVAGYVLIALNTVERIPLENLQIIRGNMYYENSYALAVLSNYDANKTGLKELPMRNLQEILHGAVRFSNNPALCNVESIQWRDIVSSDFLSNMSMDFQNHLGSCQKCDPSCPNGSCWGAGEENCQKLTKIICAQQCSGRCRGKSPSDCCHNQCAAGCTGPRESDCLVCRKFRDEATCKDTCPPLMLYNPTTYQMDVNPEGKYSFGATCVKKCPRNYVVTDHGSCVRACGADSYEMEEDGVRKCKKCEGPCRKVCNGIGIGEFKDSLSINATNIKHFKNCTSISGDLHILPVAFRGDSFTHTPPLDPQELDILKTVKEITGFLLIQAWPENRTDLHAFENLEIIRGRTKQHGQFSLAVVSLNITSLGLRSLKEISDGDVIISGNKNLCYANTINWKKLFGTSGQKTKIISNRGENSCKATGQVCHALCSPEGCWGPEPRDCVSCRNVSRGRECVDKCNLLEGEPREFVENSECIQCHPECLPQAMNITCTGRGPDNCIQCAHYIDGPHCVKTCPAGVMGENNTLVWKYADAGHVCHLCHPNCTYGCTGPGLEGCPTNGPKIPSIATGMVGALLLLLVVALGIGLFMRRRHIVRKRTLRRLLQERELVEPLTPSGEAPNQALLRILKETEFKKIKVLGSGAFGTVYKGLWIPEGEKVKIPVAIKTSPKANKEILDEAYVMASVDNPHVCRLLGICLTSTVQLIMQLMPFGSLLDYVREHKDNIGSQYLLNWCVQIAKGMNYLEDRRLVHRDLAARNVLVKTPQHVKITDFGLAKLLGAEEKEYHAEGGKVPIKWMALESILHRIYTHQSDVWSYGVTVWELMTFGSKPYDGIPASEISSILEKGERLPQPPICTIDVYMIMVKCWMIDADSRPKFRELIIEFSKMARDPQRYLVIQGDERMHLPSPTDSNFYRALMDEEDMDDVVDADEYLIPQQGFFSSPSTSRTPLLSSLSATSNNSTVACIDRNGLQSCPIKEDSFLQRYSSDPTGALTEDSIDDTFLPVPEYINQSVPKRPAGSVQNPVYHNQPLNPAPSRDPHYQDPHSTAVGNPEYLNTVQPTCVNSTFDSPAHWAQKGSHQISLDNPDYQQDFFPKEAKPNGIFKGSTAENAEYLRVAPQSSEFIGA
TEST_SUMMARY: Biochemical EGFR kinase assay (Lance Ultra TR-FRET), triple mutant del19/T790M/C797S
CONDITION_PARAMETERS: Km ATP; read-out: IC50 del19/T790M/C797S, Km ATP
pIC50: −log10 of the molar value.
Assign met to entries whose pIC50 meets or exceeds 9; assign not met to the rest.

For this compound, is measured pIC50 9 or higher? C[C@]1(O)CC[C@@H](Nc2nc(Nc3ccnc(-c4cnn(CC(F)F)c4)c3)ncc2-c2ccn(C(F)F)n2)CC1
met

For this compound, is measured pIC50 9 or higher? Cc1nn(CC(F)(F)F)cc1-c1cc(Nc2ncc(-c3ccn(CC(F)(F)F)n3)c(N[C@H]3CC[C@@](C)(O)CC3)n2)ccn1
not met

For this compound, is measured pIC50 9 or higher? Cc1nn(CC(F)(F)F)cc1-c1nccc(Nc2cc(N[C@H]3CC[C@@H](CCO)CC3)c(-c3cc(C(F)(F)F)n(C)n3)cn2)n1
not met

For this compound, is measured pIC50 9 or higher? C[C@]1(O)CC[C@@H](Nc2nc(Nc3ccnc(-c4cnn(S(=O)(=O)C5CC5)c4)c3)ncc2-c2ccn(CC(F)(F)F)n2)CC1
met

For this compound, is measured pIC50 9 or higher? Cc1nn(CC(F)(F)F)cc1-c1cc(Nc2ncc(-c3cc(C(F)(F)F)n(C)n3)c(N[C@H]3CC[C@@](C)(O)CC3)n2)ccn1
not met

----------
Field: IC50. Provide a value for each of the compounds that follow.
TARGET_ENTITY: EGFR L858R/C797S (Homo sapiens, UniProt P00533, C797S/L858R)
TEST_SUMMARY: Biochemical EGFR kinase assay (Lance Ultra TR-FRET), double mutant L858R/C797S
CONDITION_PARAMETERS: Km ATP; read-out: IC50 L858R/C797S (nM) Km ATP
Use nM as the unit, but write only the number.

Value sought: IC50, system EGFR L858R/C797S (Homo sapiens, UniProt P00533, C797S/L858R), item CN(C)C[C@H]1CC[C@@H](Nc2cc(Nc3ccnc(-c4cnn(S(=O)(=O)C5CC5)c4)n3)ncc2-c2cc(C(C)(C)O)n(C)n2)CC1 . Result: 0.1

Value sought: IC50, system EGFR L858R/C797S (Homo sapiens, UniProt P00533, C797S/L858R), item C[C@]1(O)CC[C@@H](Nc2cc(Nc3ccnc(-c4cnn(S(=O)(=O)N5CC(F)C5)c4)n3)ncc2-c2ccn(C(F)F)n2)CC1 . Result: 13.2

Value sought: IC50, system EGFR L858R/C797S (Homo sapiens, UniProt P00533, C797S/L858R), item O=S(=O)(C1CC1)n1cc(-c2nccc(Nc3cc(N[C@@H]4CCC[C@H](O)C4)c(-c4csc(C(F)(F)F)n4)cn3)n2)cn1 . Result: 22.7
